Test system: HCT 116 cells
Test method notes: HCT 116 cell proliferation assay, CTG
Assay type: cell-based
Condition description: HCT 116, CTG, 96 h; median; read-out: 2D-PROLI HCT 116 CTG 96 h, IC50 - [mol/l] (median)
pIC50: −log10 of the molar value.
Measured parameter: pIC50

A: O=C(Nc1cc(-c2[nH]c3c(OCC(F)F)ncnc3c2-c2ccccn2)ccn1)[C@@H](CC(F)F)c1ccc(F)cc1 [Example C3, reference compound]
B: O=C(Nc1cc(-c2[nH]c3nccnc3c2-c2ccccn2)ccn1)[C@@H](CC(F)F)c1ccc(F)cc1 [Example C1, reference compound]
C: O=C(Nc1cc(-c2[nH]c3ccc(F)nc3c2-c2ccccn2)ccn1)[C@@H](CC(F)F)c1ccc(F)cc1 [Example C2, reference compound]
Order by pIC50, ascending. Present the labels in the sequence the task asks for.
A, B, C

====

Measured on: human CSNK1A1 (Homo sapiens (Human))
Sequence (P48729 whole entry): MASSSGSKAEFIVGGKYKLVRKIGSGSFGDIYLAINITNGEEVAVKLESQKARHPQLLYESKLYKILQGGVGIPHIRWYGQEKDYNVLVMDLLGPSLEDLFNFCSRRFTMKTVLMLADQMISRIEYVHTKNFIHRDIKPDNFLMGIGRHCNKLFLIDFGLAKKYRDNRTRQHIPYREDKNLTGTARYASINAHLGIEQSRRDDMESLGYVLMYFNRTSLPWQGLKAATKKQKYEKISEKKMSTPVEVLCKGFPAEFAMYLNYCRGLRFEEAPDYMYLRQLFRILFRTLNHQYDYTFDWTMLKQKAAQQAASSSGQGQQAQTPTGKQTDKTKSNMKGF
Test method notes: CSNK1A1 high ATP assay (ADP-Glo, 1 mM ATP)
Format: biochemical
Condition description: median, read-out: CSNK1A1 High ATP assay IC50 [mol/l] (median)
Measured parameter: IC50 (nM)

# Molecule, Measured parameter, Recorded value
measured = [
    ("Cc1cc(CC(=O)Nc2cc(-c3[nH]c4cccnc4c3-c3ccccn3)ccn2)n(C)n1 [Example 14]", "IC50", 30.6),
    ("O=C(Nc1cc(-c2[nH]c3nccnc3c2-c2ccccn2)ccn1)[C@@H](CC(F)F)c1ccc(F)cc1 [Example C1, reference compound]", "IC50", 20.1),
    ("O=C(Cc1cc2ccccn2n1)Nc1cc(-c2[nH]c3cccnc3c2-c2ccccn2)ccn1 [Example 15]", "IC50", 24.2),
]

====

Test method notes: Solubility assay (thermodynamic solubility)
Assay type: physicochemical
Condition description: thermodynamic from solid, aqueous buffer, mean, read-out: Thermodynamic Solubility [mg/l] (mean)
Measured parameter: solubility thermodynamic at 24 h (mg/L)

Solved cases below.
# Smiles, Unit of measure, solubility thermodynamic at 24 h
records = [
    ("Cc1nc(CC(=O)Nc2cc(-c3[nH]c4cccnc4c3-c3ccccn3)ccn2)cs1", "mg/L", 9.1),
    ("Cc1cc(CC(=O)Nc2cc(-c3[nH]c4cccnc4c3-c3ccccn3)ccn2)no1", "mg/L", 6.1),
    ("O=C(Cc1cnco1)Nc1cc(-c2[nH]c3cccnc3c2-c2ccccn2)ccn1", "mg/L", 25.2),
    ("Cc1cc(CC(=O)Nc2cc(-c3[nH]c4cccnc4c3-c3ccccn3)ccn2)nn1C", "mg/L", 2.5),
    ("Cc1nc(C)c(CC(=O)Nc2cc(-c3[nH]c4cccnc4c3-c3ccccn3)ccn2)s1", "mg/L", 5.4),
]

1: Cc1nocc1CC(=O)Nc1cc(-c2[nH]c3cccnc3c2-c2ccccn2)ccn1
2: Cc1cc(CC(=O)Nc2cc(-c3[nH]c4cccnc4c3-c3ccccn3)ccn2)on1
Of 1 and 2 , whose reported solubility thermodynamic at 24 h is the larger number? Provide the label of your selected option as the answer.
2
(2: 65.9 mg/L, 1: 5.8 mg/L)

====

Test system: total-p53 in MCF-7 cells
Test method notes: HTRF total-p53 in MCF-7 cells
Format: cell-based
Condition description: Homo sapiens, MCF7, 2 h incubation, median, read-out: HTRF total-p53 MCF-7, IC50 - [mol/l] (median)
pIC50: −log10 of the molar value.
Measured parameter: pIC50

# Compound, Recorded value
records = [
    ("Cc1nc(CC(=O)Nc2cc(-c3[nH]c4cccnc4c3-c3ccccn3)ccn2)cs1", 6.74),
    ("Cc1noc(C)c1CC(=O)Nc1cc(-c2[nH]c3cccnc3c2-c2ccccn2)ccn1", 6.69),
]

a: Cn1nc(CC(=O)Nc2cc(-c3[nH]c4cccnc4c3-c3ccccn3)ccn2)cc1C1CC1
b: Cn1cnc(CC(=O)Nc2cc(-c3[nH]c4cccnc4c3-c3ccccn3)ccn2)c1
c: Cn1cc(C(CC(F)F)C(=O)Nc2cc(-c3[nH]c4cccnc4c3-c3ccccn3)ccn2)cn1 (centres unmarked)
d: O=C(Cc1cc2ccccn2n1)Nc1cc(-c2[nH]c3cccnc3c2-c2ccccn2)ccn1
Output the entries ranked by pIC50 from maximum down to minimum. Present the labels in the sequence the task asks for.
d, a, c, b

1: O=C(Cc1cnco1)Nc1cc(-c2[nH]c3cccnc3c2-c2ccccn2)ccn1
2: Cc1ocnc1CC(=O)Nc1cc(-c2[nH]c3cccnc3c2-c2ccccn2)ccn1
3: Cc1nocc1CC(=O)Nc1cc(-c2[nH]c3cccnc3c2-c2ccccn2)ccn1
4: Cc1nc(C)c(CC(=O)Nc2cc(-c3[nH]c4cccnc4c3-c3ccccn3)ccn2)s1
List the 4 entries from lowest pIC50 to highest pIC50 value. Present the labels in the sequence the task asks for.
2, 3, 1, 4

The origin of these recorded values is patent US20250188075A1.
